From: paper PMC4882222

ASSAYED_SYSTEM: HIV RT-associated RNase H (Human immunodeficiency virus type 1 group M subtype B, UniProt P04585)
Assay type: biochemical, HIV-1
RUN_PARAMETERS: RT RNase H IC50, Table 4; data with HTS-1 as substrate
Please respond with reported IC50 for every item in the list.

q: Report measured IC50; entry is CS(=O)(=O)c1ccc(Cn2cc(O)c(=O)c(C(=O)O)c2)cc1 [10o]
a: > 25 µM

q: Supply IC50 value. Item: `CCOC(=O)c1cn(Cc2ccc(F)cc2)cc(O)c1=O`
a: > 25 µM

q: Indicate the recorded IC50 value for this compound: O=C(O)c1cn(Cc2ccncc2)cc(O)c1=O [10n]
a: > 25 µM

q: Give reported IC50 value for O=C(O)c1ccc(Cn2cc(O)c(=O)c(C(=O)O)c2)cc1 [10p]
a: > 25 µM

q: Tell me its IC50 given O=C(O)c1cn(Cc2ccc(Br)cc2)cc(O)c1=O [10l] as the entry.
a: > 25 µM

q: Please list IC50 recorded for the compound O=C(O)c1cn(-c2ccccc2)cc(O)c1=O [10b]
a: > 25 µM

q: Name the recorded IC50 of the item O=C(O)c1cn(Cc2ccccc2)cc(O)c1=O [10c] in your answer.
a: > 25 µM

q: In one line, give reported IC50 of the entry O=C(O)c1c[nH]cc(O)c1=O [10a] .
a: > 25 µM

====

Assignment: determine reported pIC50 for the given compounds.
ASSAYED_SYSTEM: HIV RT-associated RNase H (Human immunodeficiency virus type 1 group M subtype B)
Type: biochemical, HIV-1
RUN_PARAMETERS: RNH IC50 HTS-2, HTS-2 substrate, measures DNA 3' end directed cleavage
pIC50: −log10 of the molar value.

q: Tell me measured pIC50 for O=C(O)c1cn(Cc2ccccc2)cc(O)c1=O [10c] please.
a: < 4.60

q: Output measured pIC50 for this item: NC(=O)c1cn(Cc2ccc(F)cc2)cc(O)c1=O [compound 20]
a: < 4.60

q: Find the measured pIC50 of O=C(O)c1cn(Cc2ccc(F)cc2)cc(O)c1=O [10d] and report it.
a: < 4.60

q: Answer with reported pIC50 of O=C(O)c1cn(-c2ccccc2)cc(O)c1=O [10b]
a: < 4.60

q: Query pIC50 for O=C(O)c1ccc(Cn2cc(O)c(=O)c(C(=O)O)c2)cc1 [10p]
a: < 4.60

q: # return recorded pIC50 for entry O=C(O)c1c[nH]cc(O)c1=O [10a]
a: < 4.60
